Tested on: L1210
Experimental Details: In vitro 50% cell growth inhibition by the compound in L1210 cells with 5 mM DFMO addition
Type: functional, cell-based
Test Context: Mus musculus
pIC50: −log10 of the molar value.
Endpoint Label: pIC50

In the examples that follow, each entry is paired with its recorded pIC50.
INSERT INTO assay_data (molecule_smiles, endpoint_label, quantitative_result) VALUES
  ('Cl.NCCCNCCCCNCCCNCCCCNC(=O)c1c2ccccc2nc2ccccc12', 'pIC50', 5.66),
  ('Cl.NCCCNCCCCNCCCNCCCNc1c2ccccc2nc2ccccc12', 'pIC50', 6.05),
  ('Cl.NCCCNCCCCNCCCNCCCCN=c1c2ccccc2[nH]c2ccccc12', 'pIC50', 6.22);

P. Cl.NCCCNCCCCNCCCNCCCCCNc1c2ccccc2nc2ccccc12
Q. Cl.NCCCNCCCCNCCCNCCCCCNC(=O)c1c2ccccc2nc2ccccc12
// compare measured pIC50, left P , right Q , return larger Please indicate the selected item by its label.
P

----------
Tested on: L1210
Experimental Details: In vitro 50% cell growth inhibition by the compound in L1210 cells
Type: functional, cell-based
Test Context: Mus musculus
Endpoint Label: IC50 (µM)

In the examples that follow, each entry is paired with its recorded IC50.
INSERT INTO measurements (molecule_smiles, units_label, quantitative_result) VALUES
  ('Cl.NCCCNCCCCNCCCNCCCCNC(=O)c1c2ccccc2nc2ccccc12', 'µM', 18),
  ('Cl.NCCCNCCCCNCCCNCCCNC(=O)c1c2ccccc2nc2ccccc12', 'µM', 43);

a. Cl.NCCCNCCCCNCCCNCCCCCNc1c2ccccc2nc2ccccc12
b. Cl.NCCCNCCCCNCCCNCCCNc1c2ccccc2nc2ccccc12
// compare measured IC50, left a , right b , return larger Please indicate the selected item by its label.
b

P. Cl.NCCCNCCCCNCCCNCCCCCNC(=O)c1c2ccccc2nc2ccccc12
Q. Cl.NCCCNCCCCNCCCNCCCCN=c1c2ccccc2[nH]c2ccccc12
# compare IC50 for P vs Q ; return the one with the smaller value Please indicate the selected item by its label.
Q
(Q: 2.3 µM, P: 41 µM)

----------
System: L1210
Experimental Details: In vitro 25% cell growth inhibition by the compound in L1210 cells with 5 mM DFMO addition
Assay type: functional
Test Context: Mus musculus
Each record here notes measured IC25.
Just the number please, in nM, no unit attached.

INSERT INTO results (molecule_smiles, endpoint_label, quantitative_result) VALUES
  ('Cl.NCCCNCCCCNCCCNCCCNC(=O)c1c2ccccc2nc2ccccc12', 'IC25', 90),
  ('Cl.NCCCNCCCCNCCCNCCCCNC(=O)c1c2ccccc2nc2ccccc12', 'IC25', 160);

The reported L1210 IC25 of `Cl.NCCCNCCCCNCCCNCCCCCNc1c2ccccc2nc2ccccc12` is 200

The reported L1210 IC25 of `Cl.NCCCNCCCCNCCCNCCCCN=c1c2ccccc2[nH]c2ccccc12` is 160

The reported L1210 IC25 of `Cl.NCCCNCCCCNCCCNCCCCCNC(=O)c1c2ccccc2nc2ccccc12` is 100

The reported L1210 IC25 of `Cl.NCCCNCCCCNCCCNCCCNc1c2ccccc2nc2ccccc12` is 140
